measured_target: MAGL (Mus musculus (Mouse), UniProt O35678)
Sequence (O35678 whole entry): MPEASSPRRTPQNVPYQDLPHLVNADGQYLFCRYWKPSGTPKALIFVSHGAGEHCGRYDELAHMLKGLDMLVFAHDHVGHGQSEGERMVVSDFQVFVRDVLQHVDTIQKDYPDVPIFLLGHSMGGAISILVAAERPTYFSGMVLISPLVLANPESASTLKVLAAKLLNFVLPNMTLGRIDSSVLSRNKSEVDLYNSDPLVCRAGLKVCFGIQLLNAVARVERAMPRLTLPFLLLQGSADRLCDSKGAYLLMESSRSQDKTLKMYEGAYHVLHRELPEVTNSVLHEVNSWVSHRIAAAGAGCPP
method_notes: Mouse brain proteomes from inhibitor treated mice (oral gavage, sacrificed 4 h after administration, ABPP analysis)
Assay type: in vivo, mouse (C57Bl/6J)
particulars: 5 mg/kg oral gavage
quantity: MAGL % Inh 5 mg/kg (mouse)

Some entries whose results are on file:
O=C(OC(C(F)(F)F)C(F)(F)F)N1CCC2(CCCN2Cc2ccc(C(F)(F)F)c(N3CCOCC3)c2)CC1; ### (### is ≥75%)
NC(=O)C1CCN(Cc2cc(C(F)(F)F)ccc2CN2CCCC23CCN(C(=O)OC(C(F)(F)F)C(F)(F)F)CC3)CC1; ### (### is ≥75%)
CC1(C)CC2(CCN(C(=O)OC(C(F)(F)F)C(F)(F)F)CC2)CN1Cc1ccc(Cl)cc1; ### (### is ≥75%)
O=C(O)C1CCN(Cc2cc(CN3CCCC34CCN(C(=O)OC(C(F)(F)F)C(F)(F)F)CC4)cc(C(F)(F)F)c2)CC1; ### (### is ≥75%)
O=C(OC(C(F)(F)F)C(F)(F)F)N1CCC2(CCCN2Cc2cc(N3CCCC3)cc(C(F)(F)F)c2)CC1; ### (### is ≥75%)
O=C(O)C1CCN(Cc2cc(C(F)(F)F)ccc2CN2CCCC23CCN(C(=O)OC(C(F)(F)F)C(F)(F)F)CC3)CC1; ### (### is ≥75%)
O=C(OC(C(F)(F)F)C(F)(F)F)N1CCC2(CCCN2Cc2ccc3c(c2)COC3)CC1; ### (### is ≥75%)
O=C(OC(C(F)(F)F)C(F)(F)F)N1CCC2(CCCN2Cc2ccc(Cl)c(OCCF)c2)CC1; ### (### is ≥75%)
O=C(OC(C(F)(F)F)C(F)(F)F)N1CCC2(CCCN2Cc2ccc(C(F)(F)F)cc2N2CCC2)CC1; ### (### is ≥75%)
CC(=O)NC1CCN(c2cc(C(F)(F)F)ccc2CN2CCCC23CCN(C(=O)OC(C(F)(F)F)C(F)(F)F)CC3)CC1; ### (### is ≥75%)

In the following, a different compound is considered.
Task: Quick one: MAGL % Inh 5 mg/kg (mouse) for `CN1CCCc2ccc(CN3CCCC34CCN(C(=O)OC(C(F)(F)F)C(F)(F)F)CC4)cc21` ?
Result: ### (### is ≥75%)

----------
measured_target: FAAH (Mus musculus (Mouse), UniProt O08914)
Sequence (O08914 whole entry): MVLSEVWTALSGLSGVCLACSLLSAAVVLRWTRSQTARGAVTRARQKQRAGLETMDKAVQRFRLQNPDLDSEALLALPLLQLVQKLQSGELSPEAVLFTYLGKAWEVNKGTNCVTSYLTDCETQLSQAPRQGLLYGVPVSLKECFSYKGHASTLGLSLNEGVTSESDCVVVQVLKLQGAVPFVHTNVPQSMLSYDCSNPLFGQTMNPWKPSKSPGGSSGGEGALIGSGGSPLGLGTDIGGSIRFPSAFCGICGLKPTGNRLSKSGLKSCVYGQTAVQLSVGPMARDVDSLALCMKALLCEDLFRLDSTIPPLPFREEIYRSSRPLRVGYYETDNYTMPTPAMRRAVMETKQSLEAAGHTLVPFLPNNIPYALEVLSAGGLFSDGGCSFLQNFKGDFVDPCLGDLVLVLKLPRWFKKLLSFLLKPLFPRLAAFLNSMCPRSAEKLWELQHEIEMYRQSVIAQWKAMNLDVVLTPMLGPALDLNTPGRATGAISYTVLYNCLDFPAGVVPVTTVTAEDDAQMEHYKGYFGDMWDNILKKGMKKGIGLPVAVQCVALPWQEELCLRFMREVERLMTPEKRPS
method_notes: In vitro competitive activity-based protein profiling (mouse brain membrane fraction or cell lysates), FAAH band
Type: biochemical
particulars: 1 μM, mouse; read-out: FAAH % Inh 1 μM (mouse)
Protocol: In Vitro Competitive Activity-Based Protein Profiling. Proteomes (mouse brain membrane fraction or cell lysates) (50 μL, 1.0 mg/mL total protein concentration) were preincubated with varying concentrations of inhibitors at 37° C. […] Following gel imaging, serine hydrolase activity was determined by measuring fluorescent intensity of gel bands corresponding to MAGL, ABHD6 and FAAH using ImageJ 1.43u software.
quantity: inhibition at 1 µM

O=C(O)c1ccc(CN2CCCC23CCN(C(=O)OC(C(F)(F)F)C(F)(F)F)CC3)cc1; < 25%

Task: Fill blank: measured inhibition at 1 µM of the molecule `O=C(O)c1cc(C(F)(F)F)ccc1CN1CCCC12CCN(C(=O)OC(C(F)(F)F)C(F)(F)F)CC2` is ____.
Result: < 25%

Task: Using the record for `O=C(O)C1CCN(Cc2cc(C(F)(F)F)ccc2CN2CCCC23CCN(C(=O)OC(C(F)(F)F)C(F)(F)F)CC3)CC1` , report its inhibition at 1 µM.
Result: < 25%

Task: Recorded inhibition at 1 µM for `O=C(O)C1CCN(c2cc(F)cc(CN3CCC4(CCN(C(=O)OC(C(F)(F)F)C(F)(F)F)CC4)C3)c2)CC1` , please?
Result: < 25%

----------
measured_target: MAGL (Homo sapiens (Human), UniProt Q99685)
Sequence (Q99685 whole entry): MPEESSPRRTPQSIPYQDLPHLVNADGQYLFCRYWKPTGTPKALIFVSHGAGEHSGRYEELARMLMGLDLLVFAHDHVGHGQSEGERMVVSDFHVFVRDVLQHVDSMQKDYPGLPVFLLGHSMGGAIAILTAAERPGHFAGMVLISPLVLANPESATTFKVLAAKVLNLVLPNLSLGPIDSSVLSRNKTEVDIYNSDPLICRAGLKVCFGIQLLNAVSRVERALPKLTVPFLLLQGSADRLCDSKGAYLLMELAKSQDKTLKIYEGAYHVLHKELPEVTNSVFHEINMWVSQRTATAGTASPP
method_notes: In vitro competitive activity-based protein profiling (human prefrontal cortex or cell membrane fractions; hMAGL expressed in HEK293T cells)
Format: biochemical
particulars: human proteome, competitive ABPP
Experimental: In Vitro Competitive Activity-Based Protein Profiling (Human). Proteomes (human prefrontal cortex or cell membrane fractions) (50 μL, 1.0-2.0 mg/mL total protein concentration) were preincubated with varying concentrations of inhibitors at 37° C. After 30 min, FP—Rh or JW912 (1.0 μL, 50 μM in DMSO) was added and the mixture was incubated for another 30 min at room temperature. Reactions were quenched with SDS loading buffer (15 μL-4×) and run on SDS-PAGE. […]
// values below are reported IC50

Worked examples follow.
N#Cc1cc(CN2CCCC23CCN(C(=O)OC(C(F)(F)F)C(F)(F)F)CC3)cc(N2CCC(C(=O)O)CC2)c1; < 100 nM
O=C(O)C1CCN(c2cc(CN3CCCC34CCN(C(=O)OC(C(F)(F)F)C(F)(F)F)CC4)cc(C(F)(F)F)c2)C1 (stereo not shown); < 100 nM
CC1(C(=O)O)CN(c2cc(CN3CCCC34CCN(C(=O)OC(C(F)(F)F)C(F)(F)F)CC4)cc(C(F)(F)F)c2)CCO1 (stereo not shown); < 100 nM

Task: Lab note: need IC50 with MAGL (Homo sapiens (Human), UniProt Q99685) for entry CS(=O)(=O)C1CCN(c2cc(C(F)(F)F)ccc2CN2CCCC23CCN(C(=O)OC(C(F)(F)F)C(F)(F)F)CC3)C1 (stereo not shown) , please look it up.
Result: < 100 nM

Task: Form entry - test system: MAGL (Homo sapiens (Human), UniProt Q99685); read-out: IC50; molecule: O=C(O)C1CN(c2cc(C(F)(F)F)ccc2CN2CCCC23CCN(C(=O)OC(C(F)(F)F)C(F)(F)F)CC3)CCO1 (stereo not shown)
Result: < 100 nM

Task: Param readout= IC50; system= MAGL (Homo sapiens (Human), UniProt Q99685); entry= `CN(C)C(=O)C1CCN(c2cc(C(F)(F)F)ccc2CN2CCCC23CCN(C(=O)OC(C(F)(F)F)C(F)(F)F)CC3)CC1` ; returns value.
Result: < 100 nM

Task: What IC50 appears in the records for this molecule with MAGL (Homo sapiens (Human), UniProt Q99685)? `O=C(O)[C@H]1CCCN(c2cc(C(F)(F)F)ccc2CN2CCCC23CCN(C(=O)OC(C(F)(F)F)C(F)(F)F)CC3)C1`
Result: < 100 nM

----------
measured_target: ABHD6 (Mus musculus (Mouse), UniProt Q8R2Y0)
Sequence (Q8R2Y0 whole entry): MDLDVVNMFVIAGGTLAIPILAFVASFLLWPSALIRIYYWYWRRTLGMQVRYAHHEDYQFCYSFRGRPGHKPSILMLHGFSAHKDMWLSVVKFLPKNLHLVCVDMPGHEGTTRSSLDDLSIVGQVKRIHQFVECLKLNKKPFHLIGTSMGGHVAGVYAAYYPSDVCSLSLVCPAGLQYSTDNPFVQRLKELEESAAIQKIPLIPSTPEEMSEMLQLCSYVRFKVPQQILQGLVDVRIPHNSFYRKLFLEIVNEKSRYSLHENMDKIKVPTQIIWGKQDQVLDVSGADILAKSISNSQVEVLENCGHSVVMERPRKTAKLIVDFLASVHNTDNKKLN
method_notes: In vitro competitive activity-based protein profiling (mouse brain membrane fraction or cell lysates), ABHD6 band
Format: biochemical
particulars: 1 μM, mouse; read-out: ABHD6 % Inh 1 μM (mouse)
quantity: inhibition at 1 µM

Worked examples follow.
O=C(O)C1CCN(Cc2cc(CN3CCC4(CCN(C(=O)OC(C(F)(F)F)C(F)(F)F)CC4)C3)cc(C(F)(F)F)c2)CC1; ≥ 75%
O=C(O)C1CCN(c2cc(S(F)(F)(F)(F)F)ccc2CN2CCC3(CCN(C(=O)OC(C(F)(F)F)C(F)(F)F)CC3)C2)CC1; ≥ 75%
O=C(O)C1CCN(Cc2cc(CN3CCC4(CCN(C(=O)OC(C(F)(F)F)C(F)(F)F)CC4)C3)ccc2Cl)CC1; 25 to 75%
N#Cc1ccc(CN2CCCC23CCN(C(=O)OC(C(F)(F)F)C(F)(F)F)CC3)c(N2CCC(C(=O)O)CC2)c1; < 25%
CC1(C(=O)O)CCCN(c2cc(CN3CCCC34CCN(C(=O)OC(C(F)(F)F)C(F)(F)F)CC4)cc(C(F)(F)F)c2)C1 (stereo not drawn); < 25%

Task: Need inhibition at 1 µM, item CC1(C(=O)O)CN(c2cc(C(F)(F)F)ccc2CN2CCC3(CCN(C(=O)OC(C(F)(F)F)C(F)(F)F)CC3)C2)CCO1 (stereo not drawn)
Result: < 25%

Task: # get_value(readout='inhibition at 1 µM', item= `O=C(O)C1CCN(c2cc(Cl)cc(CN3CCC4(CCN(C(=O)OC(C(F)(F)F)C(F)(F)F)CC4)C3)c2)CC1` )
Result: 25 to 75%

----------
measured_target: MAGL (Mus musculus (Mouse))
method_notes: In vitro competitive activity-based protein profiling (mouse brain membrane fraction or cell lysates), MAGL band
Format: biochemical
particulars: 1 μM, mouse proteome; read-out: MAGL % Inh 1 μM (mouse)
quantity: inhibition at 1 µM

O=C(OC(C(F)(F)F)C(F)(F)F)N1CCC2(CCCN2Cc2cccc(OCCN3CCCC3)c2)CC1 [Example 12]; > 75%

Task: Give its inhibition at 1 µM value. Item: O=C(OC(C(F)(F)F)C(F)(F)F)N1CCC2(CCCN2Cc2ccc(C(F)(F)F)cc2N2CCC(F)CC2)CC1 [Example 91]
Result: > 75%

Task: // query inhibition at 1 µM value for entry O=C(OC(C(F)(F)F)C(F)(F)F)N1CCC2(CCCN2Cc2ccc(Cl)cc2N2CCOCC2)CC1 [Example 77]
Result: > 75%

Task: What does the data say about its inhibition at 1 µM? Entry: O=C(OC(C(F)(F)F)C(F)(F)F)N1CCC2(CCCN2Cc2ccc(C(F)(F)F)c(N3CCCC3)c2)CC1 [Example 134]
Result: > 75%

Task: Field request: inhibition at 1 µM | item: CS(=O)(=O)N1CCc2cccc(CN3CCC4(CCN(C(=O)OC(C(F)(F)F)C(F)(F)F)CC4)C3)c2C1 [Example 161]
Result: > 75%

Task: Which value of inhibition at 1 µM has been reported for O=C(OC(C(F)(F)F)C(F)(F)F)N1CCC2(CCCN2Cc2cccc(N3CC4COCC4C3)c2Cl)CC1 (stereo not shown) [Example 112] in the records?
Result: > 75%

Task: I am curious: what inhibition at 1 µM value has been reported for CS(=O)(=O)N1CCCc2cccc(CN3CCCC34CCN(C(=O)OC(C(F)(F)F)C(F)(F)F)CC4)c21 [Example 143] ?
Result: > 75%
